Values were extracted from patent US9376462B2.

- System: MCF-7 cells
- Protocol Text: Cell proliferation assay (tetrazolium salt/MTT method), MCF-7
- Type: cell-based
- Test Conditions: Homo sapiens, MCF7, 72 h, read-out: IC50, inhibition of cell proliferation
Measured Property: IC50 (µM)

C[C@H](CC[C@H](O)[C@](C)(O)CO)[C@H]1CC[C@@]2(C)C3=CCC4C(C)(C)C(=O)CC[C@]4(C)C3=CC[C@]12C (stereo partly shown) [compound 1] | 5.8

----------
- Tested on: MCF-7 cells
- Protocol Text: Cell proliferation assay (tetrazolium salt/MTT method), MCF-7
- Type: cell-based
- Test Conditions: Homo sapiens; MCF7 cells, 72 h, 0-100 μM; read-out: IC50, inhibition of cell proliferation
- Experimental: Cell culture: The human breast cancer cell lines MCF-7 and MDA-MB-231, obtained from ATCC (Manassas, Va.), were cultivated in Dulbecco's modified Eagle's medium (DMEM) containing penicillin (50 U/ml), streptomycin (50 U/ml), and 10% fetal bovine serum (FBS). Media and supplements were from Invitrogen (Grand Island, N.Y.). Cell proliferation assay: Ganodermanontriol, 13, 14, and 15 (isomers) were dissolved in DMSO (Sigma; St. Louis, Mo.) at a concentration of 10 mM and stored at 4° C. […]
Reported IC50 by item:
Measured Property: IC50 (µM)

C[C@H](CC[C@@H](O)[C@](C)(O)CO)[C@H]1CC[C@@]2(C)C3=CCC4C(C)(C)C(=O)CC[C@]4(C)C3=CC[C@]12C (stereo partly drawn) | 24.1
C[C@H](CC[C@H](O)[C@@](C)(O)CO)[C@H]1CC[C@@]2(C)C3=CCC4C(C)(C)C(=O)CC[C@]4(C)C3=CC[C@]12C (stereo partly drawn) | 16.3
C[C@H](CC[C@@H](O)[C@@](C)(O)CO)[C@H]1CC[C@@]2(C)C3=CCC4C(C)(C)C(=O)CC[C@]4(C)C3=CC[C@]12C (stereo partly drawn) | 24.1
